protocol-text: Pharmacokinetic parameter AUC was evaluated in 10% PEG suspension at a dose of 20 mg/kg orally
Assay type: ADME, organism-based
Set-up: dose 20 mg/kg, route oral
condition-label: in vivo, po
reported-metric: AUC

C[C@](Cc1c[nH]c2ccccc12)(NC(=O)OC1C2CC3CC(C2)CC1C3)C(=O)N[C@@H]1CCCC[C@H]1O (stereo partly specified); 953 ng·h/mL

====

protocol-text: Pharmacokinetic parameter Tmax was evaluated in 0.5% methylcellulose suspension
condition-label: in vivo
reported-metric: Tmax

C[C@](Cc1c[nH]c2ccccc12)(NC(=O)OC1C2CC3CC(C2)CC1C3)C(=O)N[C@@H]1CCCC[C@H]1O (stereo partly specified); 3 h
